Give measured Growth Rate for each item. Keep answers brief.
System: U2OS
Assay: Incucyte cell viability with U2OS; further: filed as whole numbers so only -1 and 0 and 1 occur
Type: toxicity, cell-based
Settings: human, 12 h, 10 µM, compound concentration 10 uM, replicate number 1, timepoint 12 hours
Lab note: jot down the number only; don't add units.

# input compound: CC(C)NCC(O)COc1cccc2ccccc12.Cl (stereo not drawn) [PROPRANOLOL HYDROCHLORIDE] ; wanted: its Growth Rate
1

# input compound: `Cc1ccc(NC(=O)Nc2cc(C(F)(F)F)ccc2F)cc1Nc1ccc2c(c1)NC(=O)/C2=C\c1ccc[nH]1` ; wanted: its Growth Rate
0

# input compound: `Cl.NC[C@@H]1O[C@H](C23CC4CC(CC(C4)C2)C3)Cc2c1ccc(O)c2O` ; wanted: its Growth Rate
0

# input compound: `CN(c1cc(C(F)(F)F)nc(OCCC(=O)O)n1)c1cccc2c1CCC2` ; wanted: its Growth Rate
0

# input compound: `c1ccc(-c2oc3ncnc(NC[C@@H]4CCCO4)c3c2-c2ccccc2)cc1` ; wanted: its Growth Rate
0

# input compound: C[C@H]1C[C@H]2[C@@H]3CCC4=CC(=O)C=C[C@]4(C)[C@@]3(Cl)[C@@H](O)C[C@]2(C)[C@@]1(O)C(=O)CO [BECLOMETHASONE] ; wanted: its Growth Rate
1

# input compound: N#CCNC(=O)c1ccc(-c2ccnc(Nc3ccc(N4CCOCC4)cc3)n2)cc1 [MOMELOTINIB] ; wanted: its Growth Rate
1

# input compound: Cl.Cn1c2c(c3ccc(Cl)c(Cl)c31)C(C#N)C1(CCNCC1)NC2=O (stereo not drawn) ; wanted: its Growth Rate
0

# input compound: `COc1ccc(CCc2nc3cc(-c4c(C)noc4C)ccc3n2C[C@H](C)N2CCOCC2)cc1Cl` ; wanted: its Growth Rate
1

# input compound: `Cc1cn2cc(CC(=O)N3CCC4(CC3)CN(Cc3ccc(-n5nccn5)cc3Cl)C4)nc2s1` ; wanted: its Growth Rate
1

# input compound: CCN(CCO)CCCOc1ccc2c(Nc3cc(CC(=O)Nc4cccc(F)c4)[nH]n3)ncnc2c1 [DEFOSBARASERTIB] ; wanted: its Growth Rate
0

# input compound: `C/C(=N\NC(=O)[C@@H]1C(=O)NC[C@H]1c1ccccc1)c1cccc(Br)c1` ; wanted: its Growth Rate
1

# input compound: C[C@@H](NC(=O)Nc1cc2[nH]ncc2c(CO)n1)c1ccccc1 [ERKi] ; wanted: its Growth Rate
0

# input compound: CC(Cc1ccc(O)c(O)c1)C(C)Cc1ccc(O)c(O)c1 (stereo not drawn) [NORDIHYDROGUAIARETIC ACID] ; wanted: its Growth Rate
0

# input compound: `C[C@@H](N)Cc1c[nH]cn1.Cl.Cl` ; wanted: its Growth Rate
0

# input compound: `COc1cc(N2CCC(O)CC2)ccc1Nc1cc(Nc2ccccc2S(=O)(=O)C(C)C)c2cc[nH]c2n1` ; wanted: its Growth Rate
1

# input compound: `N#Cc1cccc(C(=O)Nc2cc(-c3ccccc3)nn2-c2ccccc2)c1` ; wanted: its Growth Rate
0

# input compound: C[C@@H](Oc1cc(-n2cnc3ccc(CN4CCN(C)CC4)cc32)sc1C(N)=O)c1ccccc1C(F)(F)F [GSK-461364] ; wanted: its Growth Rate
0

---

Give measured Population Hoechst High Intensity Objects (%) for each item. Keep answers brief.
System: Fibroblast
Assay: Multiplex assay against human fibroblast
Assay type: toxicity, cell-based
Conditions: 12 h, 10 µM, compound concentration 10 uM, replicate 2

# input compound: `c1ccc(-c2oc3ncnc(NC[C@@H]4CCCO4)c3c2-c2ccccc2)cc1` ; wanted: its Population Hoechst High Intensity Objects (%)
6%

# input compound: `NC(=O)c1ccc2nc(-c3ccc(C4(N)CCC4)cc3)c(-c3ccccc3)n2n1` ; wanted: its Population Hoechst High Intensity Objects (%)
40%

# input compound: `CC[C@@H]1C(=O)N(C)c2cnc(Nc3ccc(C(=O)NC4CCN(C)CC4)cc3OC)nc2N1C1CCCC1` ; wanted: its Population Hoechst High Intensity Objects (%)
26%

# input compound: CC(Cc1ccc(O)c(O)c1)C(C)Cc1ccc(O)c(O)c1 (stereo not given) [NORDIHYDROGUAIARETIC ACID] ; wanted: its Population Hoechst High Intensity Objects (%)
6%

# input compound: `CC(C)[C@H](CO)Nc1nc(Nc2cccc(Cl)c2)c2ncn(C(C)C)c2n1` ; wanted: its Population Hoechst High Intensity Objects (%)
7%

---

System: HEK-293T
Test: Multiplex assay against HEK293T
Format: toxicity, cell-based
Settings: human, 48 h, 10 µM, compound concentration 10 uM, replicate 2
outcomeMeasure: Population Normal (%)
Please give a number only; it is taken to be in %.

# input molecule: `CCCCN(CC)c1nc(C)nc2c1c(C)cn2-c1c(C)cc(C)cc1C.Cl` ; wanted: its Population Normal (%)
97

# input molecule: `N#Cc1cccc(C(=O)Nc2cc(-c3ccccc3)nn2-c2ccccc2)c1` ; wanted: its Population Normal (%)
92

# input molecule: Oc1cccc(-c2nc(N3CCOCC3)c3oc4ncccc4c3n2)c1 [PI-103] ; wanted: its Population Normal (%)
77

# input molecule: `CN(c1cc(C(F)(F)F)nc(OCCC(=O)O)n1)c1cccc2c1CCC2` ; wanted: its Population Normal (%)
97

# input molecule: `CC(/C=C1\SC(=S)N(CCCC(=O)Nc2ccc(C(=O)O)c(O)c2)C1=O)=C\c1ccccc1` ; wanted: its Population Normal (%)
96

# input molecule: `CN1CCN(Cc2ccc(-c3cnc4[nH]cc(-c5ccc6[nH]ccc6c5)c4c3)cc2)CC1` ; wanted: its Population Normal (%)
81

# input molecule: CC(C)[C@H](CO)Nc1nc(Nc2cccc(Cl)c2)c2ncn(C(C)C)c2n1 [PURVALANOLA] ; wanted: its Population Normal (%)
94

---

Give measured Growth Rate for each item. Keep answers brief.
System: Fibroblast
Experiment: Incucyte cell viability with human fibroblast; further: filed as whole numbers so only -1 and 0 and 1 occur
Assay type: toxicity, cell-based
Settings: 6 h, 10 µM, compound concentration 10 uM, replicate number 1, timepoint 6 hours
Lab note: jot down the number only; don't add units.

# input molecule: `CC[C@H](Nc1ncnc2[nH]cnc12)c1nc2cccc(F)c2c(=O)n1-c1ccccc1` ; wanted: its Growth Rate
0

# input molecule: `Cc1ccc(NC(=O)Nc2cc(C(F)(F)F)ccc2F)cc1Nc1ccc2c(c1)NC(=O)/C2=C\c1ccc[nH]1` ; wanted: its Growth Rate
0

# input molecule: CC(C)(N)C(=O)N[C@H](COCc1ccccc1)C(=O)N1CCC2(CC1)CN(S(C)(=O)=O)c1ccccc12.CS(=O)(=O)O [IBUTAMOREN MESYLATE] ; wanted: its Growth Rate
0

# input molecule: `O=C(O)[C@H]1[C@H](Cn2nnc3ccccc3c2=O)CC[C@@H]1C(=O)c1ccc(OCCC2CCOCC2)cc1` ; wanted: its Growth Rate
1

---

Tested on: U2OS
Experiment: Multiplex assay against U2OS
Format: toxicity, cell-based
Settings: human, 12 h, 10 µM, compound concentration 10 uM, replicate 1
outcomeMeasure: Total Cell Count

# input molecule: `CC[C@H](Nc1ncnc2[nH]cnc12)c1nc2cccc(F)c2c(=O)n1-c1ccccc1` ; wanted: its Total Cell Count
180

# input molecule: `N#Cc1cccc(C(=O)Nc2cc(-c3ccccc3)nn2-c2ccccc2)c1` ; wanted: its Total Cell Count
121

# input molecule: `CC(C)c1cc(Nc2nc(N3CCC[C@H](N)C3)ncc2C(N)=O)cc(C(C)C)n1` ; wanted: its Total Cell Count
161

# input molecule: `Cl.NC[C@@H]1O[C@H](C23CC4CC(CC(C4)C2)C3)Cc2c1ccc(O)c2O` ; wanted: its Total Cell Count
150

# input molecule: `Cc1ccc(NC(=O)Nc2cc(C(F)(F)F)ccc2F)cc1Nc1ccc2c(c1)NC(=O)/C2=C\c1ccc[nH]1` ; wanted: its Total Cell Count
204

# input molecule: `CC(/C=C1\SC(=S)N(CCCC(=O)Nc2ccc(C(=O)O)c(O)c2)C1=O)=C\c1ccccc1` ; wanted: its Total Cell Count
117

# input molecule: `CC(C)C[C@H](NC(=O)[C@H](Cc1ccccc1)NC(=O)CNC(=O)CNC(=O)[C@@H](N)Cc1ccc(O)cc1)C(=O)O` ; wanted: its Total Cell Count
148

# input molecule: `CCOC(=O)CCNc1cc(N2CCc3ccccc3CC2)nc(-c2ccccn2)n1` ; wanted: its Total Cell Count
133

# input molecule: `Cc1c(Nc2ccc(S(=O)(=O)N3CCN(C)CC3)cc2F)nc2ccc(Nc3cnn(C4CC4)c3)cn2c1=O` ; wanted: its Total Cell Count
459

# input molecule: CS(=O)(=O)N1CCCC(NC(=O)[C@H](CCC2CCCCC2)NC(=O)c2ccc(CNC(=O)c3cnc4ccccn34)cc2)C1 (some centres not stated) ; wanted: its Total Cell Count
185 [middle of 4 runs]

# input molecule: `CC[C@@H]1C(=O)N(C)c2cnc(Nc3ccc(C(=O)NC4CCN(C)CC4)cc3OC)nc2N1C1CCCC1` ; wanted: its Total Cell Count
160

# input molecule: CN1C(=O)[C@@H](NC(=O)c2cc3ccccc3[nH]2)N=C(c2ccccc2)c2ccccc21 [DEVAZEPIDE] ; wanted: its Total Cell Count
117

# input molecule: `CCOc1ccn(-c2ccc(F)cc2)c(=O)c1C(=O)Nc1ccc(Oc2ccnc(N)c2Cl)c(F)c1` ; wanted: its Total Cell Count
193

# input molecule: `CC(C)[C@H](CO)Nc1nc(Nc2cccc(Cl)c2)c2ncn(C(C)C)c2n1` ; wanted: its Total Cell Count
129

# input molecule: `Oc1cccc(-c2nc(N3CCOCC3)c3oc4ncccc4c3n2)c1` ; wanted: its Total Cell Count
168

# input molecule: `CN(c1cc(C(F)(F)F)nc(OCCC(=O)O)n1)c1cccc2c1CCC2` ; wanted: its Total Cell Count
149

# input molecule: CCCCCNC(=N)N/N=C/c1c[nH]c2ccc(OC)cc12.O=C(O)/C=C\C(=O)O [TEGASEROD MALEATE] ; wanted: its Total Cell Count
167
